pEC50: recorded values
Biological target: Peroxisome proliferator-activated receptor gamma (Homo sapiens)
Sequence (P37231 whole entry): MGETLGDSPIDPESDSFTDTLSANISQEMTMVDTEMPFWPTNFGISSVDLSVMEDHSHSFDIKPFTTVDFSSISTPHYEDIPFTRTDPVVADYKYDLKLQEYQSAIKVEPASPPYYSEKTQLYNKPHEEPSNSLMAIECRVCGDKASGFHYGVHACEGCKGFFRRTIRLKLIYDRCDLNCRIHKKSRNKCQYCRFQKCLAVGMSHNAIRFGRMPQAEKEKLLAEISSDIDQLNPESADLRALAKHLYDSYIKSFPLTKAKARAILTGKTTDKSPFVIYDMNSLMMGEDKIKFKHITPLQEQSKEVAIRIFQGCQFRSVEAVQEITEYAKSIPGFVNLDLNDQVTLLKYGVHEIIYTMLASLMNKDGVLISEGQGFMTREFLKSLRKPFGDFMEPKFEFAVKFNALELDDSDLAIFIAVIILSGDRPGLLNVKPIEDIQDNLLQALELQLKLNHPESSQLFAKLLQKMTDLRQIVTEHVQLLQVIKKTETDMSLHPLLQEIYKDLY
Please report pEC50 as the negative decimal logarithm of the molar concentration, giving only the number.

Please state recorded pEC50 (tested on Peroxisome proliferator-activated receptor gamma (Homo sapiens)) of CCCc1nc2cc(C(=O)c3ccccc3)ccc2n1Cc1ccc(-c2ccccc2C(=O)O)cc1
6.24

CCCc1nc2ccc(C(=O)c3ccccc3)cc2n1Cc1ccc(-c2ccccc2C(=O)O)cc1 , same question.
6.21

CCCc1nc2cc(Br)c(Br)cc2n1Cc1ccc(-c2ccccc2C(=O)O)cc1 , same question.
6.40

---

target: Peroxisome proliferator-activated receptor gamma (Homo sapiens)
pEC50: recorded values
Please report pEC50 as the negative decimal logarithm of the molar concentration, giving only the number.

>  <COMPOUND>
CCCc1nc2ccccc2n1Cc1ccc(-c2ccccc2C(=O)O)cc1

>  <pEC50>
5.72

$$$$

Requested field: pEC50. Item: CCCc1nc2ccc(Br)cc2n1Cc1ccc(-c2ccccc2C(=O)O)cc1
6.33

CCCc1nc2c(C)cc(-c3nc4ccccc4n3C)cc2n1Cc1ccc(-c2ccccc2C(=O)O)cc1 , same question.
5.47

CCCc1nc2ccc(C(O)c3ccccc3)cc2n1Cc1ccc(-c2ccccc2C(=O)O)cc1 (stereo unspecified) , same question.
5.46

CCCc1nc2cc(C(O)c3ccccc3)ccc2n1Cc1ccc(-c2ccccc2C(=O)O)cc1 (stereo unspecified) , same question.
5.54

CCCc1nc2cc3ccccc3cc2n1Cc1ccc(-c2ccccc2C(=O)O)cc1 , same question.
6.59

Source of measurements: ChEMBL document CHEMBL1212876
